experiment: in vivo; conditions: Sprague-Dawley, rat, plasma, po, 10 mg/kg
Description: Drug level in femoral artery cannulated Sprague-Dawley rat plasma at 10 mg/kg, po after 1 hr by LC/MS/MS method
READOUT: concentration at 1 h
The answer should read as a number with its unit following.

[
  {
    "SMILES": "CN(C)S(=O)(=O)NC[C@H]1CC[C@H](NC(=O)CN2C(=O)CC(C)(C)Sc3ccccc32)CC1",
    "concentration at 1 h": "1.5 nM"
  },
  {
    "SMILES": "CC(C)S(=O)(=O)NC[C@H]1CC[C@H](NC(=O)CN2C(=O)COc3cc(Cl)ccc32)CC1",
    "concentration at 1 h": "481 nM"
  },
  {
    "SMILES": "CC(C)S(=O)(=O)NC[C@H]1CC[C@H](NC(=O)CN2CCOc3cc(Cl)ccc32)CC1",
    "concentration at 1 h": "430 nM"
  }
]

Let us examine a further case.
Find the measured concentration at 1 h of CC(C)S(=O)(=O)NC[C@H]1CC[C@H](NC(=O)CN2C(=O)CCc3cc(Cl)ccc32)CC1 and report it.
879 nM
